experiment-summary: NCI Yeast Anticancer Drug Screen. Data for the mec2-1 strain (AID 157)
applied-conditions: S. cerevisiae mec2-1 strain, at 50.0 µM, hits give high values
Compounds without any hit were thinned out: in the full panel of roughly 79,000, 15% have a hit.
The reader will find reported growth inhibition values listed item by item below.

| molecule | unit-abbreviation | growth inhibition |
| --- | --- | --- |
| COC(=O)c1c(C=O)cccc1[N+](=O)[O-] | % | -0.05 |
| Cc1ccc(NC(=O)CC2SC(=Nc3cccc(Cl)c3C)NC2=O)cc1 (stereo not drawn) | % | 27.9 |
| CCCC(O)C(=O)C(CCC)N(CC)CC (stereo not drawn) | % | -6.85 |

----------
experiment-summary: NCI Yeast Anticancer Drug Screen. Data for the mec2-1 strain (AID 157)
applied-conditions: S. cerevisiae mec2-1 strain, at 50.0 µM, hits give high values
Experimental: Growth inhibition of yeast strains with defined genetic alterations is measured as a screen for potential anti-cancer activity. Selected strains with alterations in DNA damage repair or cell cycle control were exposed to compounds and growth inhibition was measured relative to vehicle treated controls. The strain used in this assay is mec2-1
The panel holds about 79,000 compounds, 15% with a hit somewhere; the sample as a whole holds those more often.
Binary classification by growth inhibition, with -10% as an inclusive lower bound for rule met; all other cases are rule not met.

| molecule | answer-label |
| --- | --- |
| CC(=O)Nc1ccc(N=C2c3ccccc3-c3ccc([N+](=O)[O-])cc32)cc1 | rule not met |
| CC1(CO)OC(n2cnc3c(N)ncnc32)C(O)C1O (stereo not drawn) | rule not met |
| O=C(O)c1nc(N=Nc2ccc(S(=O)(=O)O)cc2)[nH]c1C(=O)O | rule met |
| CCN(CC)CCCC(C)NC(=O)c1ccc2c(c1O)C(=O)c1ccccc1C2=O (stereo not drawn) | rule met |
| O=C(O)CCN1CCSC1=O | rule met |
| N#CC(CNC1CCCCC1)c1ccccc1 (stereo not drawn) | rule met |
| NC(=O)CNC(=O)[C@@H]1CC(OCCC(=O)O)CN1C(=O)C1CCCN1C(=O)OCc1ccccc1 (stereo partly drawn) | rule met |
| CCC(=O)Nc1cc(Cl)c(Cl)cc1C | rule not met |
| O=C(OCCOc1ccc(Cl)cc1Cl)c1ccccc1O | rule not met |
| CC12CCC(c3cn[nH]c31)C2(C)C (stereo not drawn) | rule met |
| CSc1nc(C=O)nc(SC)n1 | rule not met |
| CN(C)C1=Nc2ccccc2C(=S)N2CSCC12 (stereo not drawn) | rule not met |
| NC(N)=Nc1cccc2ccccc12 | rule met |

----------
The reader will find reported growth inhibition values listed item by item below.
experiment-summary: NCI Yeast Anticancer Drug Screen. Data for the mlh1 rad18 strain (AID 175)
applied-conditions: S. cerevisiae mlh1 rad18 strain growth inhibition; at 50.0 µM; hits give high values
The panel holds about 79,000 compounds, 15% with a hit somewhere; the sample as a whole holds those more often. Where a SMILES comes first, the peptide text is derived from it. [ ]: non-standard residue; d: D form. The star is where a group is joined. ξ: configuration not given here. ξF = NC(Cc1ccccc1)C(=O)O; Cbz = O=C(OCc1ccccc1)*; Aib = CC(C)(N)C(=O)O

| compound | growth inhibition / % |
| --- | --- |
| CC(C)(C)c1ccc(O)c(CNCCO)c1 | 8.05 |
| CC(C)(NC(=O)OCc1ccccc1)C(=O)NC(Cc1ccccc1)C(=O)O (stereo unspecified) (Cbz-[Aib]-[ξF]-OH) | -11.3 |
| O=S(=O)(Cc1ccccc1)/C(=C\c1ccccc1)c1ccccc1 | 5.5 |
| COc1c(-c2cccs2)oc2c(CC(=O)O)cccc2c1=O | -26 |
| CCCCNc1ccc2c(c1)Cc1ccccc1-2 | -8.35 |
| Cn1ccnc1CC(C)(O)c1ccccc1 (stereo unspecified) | 6.8 |
| Cc1ccc(S(=O)(=O)C(C#N)CCC(=O)c2ccc(Cl)cc2)cc1 (stereo unspecified) | 17.6 |
| CCOC(=O)C(NC(C)=O)C(O)c1ccccc1 (stereo unspecified) | -9.95 |
| O=C(NO)/C(CC(=O)c1ccc(O)cc1O)=N\O | 16.9 |
| C=C1C(=O)OC2/C=C(\C)CC(O)/C=C(/CO)CC(OC(=O)/C(C)=C/C)C12 (stereo unspecified) | -58.5 |
| Cc1cc[n+](C2=C([O-])C3=C(C(=O)C2=O)C2c4ccccc4C3c3ccccc32)c(C)c1 | 97.5 |
